assay: Rat pharmacokinetic study; type: in vivo, rats; conditions: female, Sprague-Dawley, plasma, po, i.g., 10.0 mg/kg
property: AUC(0-t) (ng·h/mL)
// return numeric value only (unit: ng·h/mL, not printed)

AUC(0-t) for "COc1cc(C=CC(=O)CC(=O)C=Cc2ccc(O)c(CN3CCCC3)c2)ccc1O" ? 3620

###

assay: Rat pharmacokinetic study; format: in vivo, rats; conditions: female, Sprague-Dawley, plasma, oral, i.g. 10.0 mg/kg versus i.v. 1.00 mg/kg, read-out: F (percent oral bioavailability)
property: bioavailability
Respond with a number, then the unit of measure.

Any idea what its bioavailability is? The molecule is "COc1cc(C=CC(=O)CC(=O)C=Cc2ccc(O)c(CN3CCCC3)c2)ccc1O" 57.1%

###

assay: Rat pharmacokinetic study; type: in vivo, rats; details: female, Sprague-Dawley, plasma, po, i.g., 10.0 mg/kg, read-out: T1/2 (half-life) (converted)
property: half-life (h)
Respond numerically; units are h and should not be typed.

Consider the molecule shown here: "COc1cc(C=CC(=O)CC(=O)C=Cc2ccc(O)c(CN3CCCC3)c2)ccc1O" What is its recorded half-life? 7.82

###

test: Rat pharmacokinetic study; assay type: in vivo, rats; conditions: female, Sprague-Dawley, plasma, iv, 1.00 mg/kg
property: AUC(0-t)
Please report the result as a number followed by the unit.

Which AUC(0-t) is reported for this molecule? COc1cc(C=CC(=O)CC(=O)C=Cc2ccc(O)c(CN3CCCC3)c2)ccc1O [DMC-BH] 634 ng·h/mL

###

Test: Octanol-water partition coefficient
Format: physicochemical
Conditions: n-octanol/water (buffer); pH 7.4, n-octanol/water; read-out: logP
Procedure: To determine whether DMC-BH inhibits the growth of glioma in the brain, we assessed its octanol-water partition coefficients and BBB penetrability. […] Figure 2 Octanol-water partition coefficients (logP) and BBB penetrability of DMC-BH. […] The amount of the compound in the water phase was determined spectrophotometrically, and the amount in the octanol phase was obtained by subtracting the supernatant concentration from the total concentration. […]
property: logP
Quick one: just the number, no unit, thanks!

Data request, read-out logP, for COc1cc(C=CC(=O)CC(=O)C=Cc2ccc(O)c(CN3CCCC3)c2)ccc1O [DMC-BH] 3.26

###

Test: Rat pharmacokinetic study
Type: in vivo, rats
Settings: i.v., 1.00 mg/kg
Description: Rat PK studies were performed to study whether DMC-BH is more bioavailable than did DMC. Female Sprague-Dawley (SD) rats (n = 3) were purchased from the Shanghai Experimental Animal Center of Chinese Academy of Science (Shanghai, China). […] All plasma samples were stored immediately at -80° C until analyzed. […] The pharmacokinetic parameters were determined using non-compartmental analysis (WinNonlin, Pharsight Corporation, Mountain View, CA, USA).
property: Cl F obs (plasma clearance rate) (mL/min/kg)
Give just the numeric value; mL/min/kg need not be written.

Please report the recorded Cl F obs (plasma clearance rate) for "COc1cc(C=CC(=O)CC(=O)C=Cc2ccc(O)c(CN3CCCC3)c2)ccc1O" . 24.6
